# assay system: T1, HumanB7-H4 (Homo sapiens, UniProt Q7Z7D3)
# T1 construct: Human B7H4 ECD; FLAG; 10His; made in house
# T1 sequence (Q7Z7D3 25-259 limits assumed): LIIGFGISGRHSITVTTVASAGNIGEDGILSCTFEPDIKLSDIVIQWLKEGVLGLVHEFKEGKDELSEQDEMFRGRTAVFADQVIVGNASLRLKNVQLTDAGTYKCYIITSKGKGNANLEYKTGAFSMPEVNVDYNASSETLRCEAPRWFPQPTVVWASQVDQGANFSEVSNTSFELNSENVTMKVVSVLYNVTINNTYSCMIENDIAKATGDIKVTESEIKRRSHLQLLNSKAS
# assay overview: ForteBio Octet affinity
# Format: binding
# setup conditions: hIgG1-TM (n = 4-7)
Measured kdis of individual entries

- molecule: "ZY0EOB-F05: anti-B7-H4 antibody clone, VH SEQ ID NO: 35, VL SEQ ID NO: 36 (antibody, V domains shown) VH: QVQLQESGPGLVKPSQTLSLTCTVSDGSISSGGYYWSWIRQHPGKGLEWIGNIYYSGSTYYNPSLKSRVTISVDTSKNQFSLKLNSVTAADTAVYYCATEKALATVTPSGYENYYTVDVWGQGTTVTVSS VL: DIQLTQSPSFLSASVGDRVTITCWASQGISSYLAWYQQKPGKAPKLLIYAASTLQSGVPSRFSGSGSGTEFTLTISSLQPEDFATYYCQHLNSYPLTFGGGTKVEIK"
  kdis: "0.000355 s⁻¹"
- molecule: "ZY0EPQ-E02: anti-B7-H4 antibody clone, VH SEQ ID NO: 31, VL SEQ ID NO: 32 (antibody, V domains shown) VH: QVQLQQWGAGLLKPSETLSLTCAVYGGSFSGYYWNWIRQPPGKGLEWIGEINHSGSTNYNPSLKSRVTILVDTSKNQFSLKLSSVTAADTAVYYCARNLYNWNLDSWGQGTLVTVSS VL: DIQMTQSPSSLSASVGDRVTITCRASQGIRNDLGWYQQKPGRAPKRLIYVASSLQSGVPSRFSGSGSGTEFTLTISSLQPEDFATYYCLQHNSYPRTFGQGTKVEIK"
  kdis: "0.00182 s⁻¹"
- molecule: "ZY0EQD-E02: anti-B7-H4 antibody clone, VH SEQ ID NO: 33, VL SEQ ID NO: 34 (antibody, V domains shown) VH: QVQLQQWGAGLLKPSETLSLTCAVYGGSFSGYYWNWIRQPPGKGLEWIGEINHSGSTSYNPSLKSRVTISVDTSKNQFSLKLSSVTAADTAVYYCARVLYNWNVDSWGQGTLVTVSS VL: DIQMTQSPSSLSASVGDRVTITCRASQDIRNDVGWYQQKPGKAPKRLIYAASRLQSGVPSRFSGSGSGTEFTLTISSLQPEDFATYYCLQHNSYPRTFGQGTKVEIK"
  kdis: "0.00278 s⁻¹"
